Cited source for all entries: patent US6881719B2

assay: physchem; details: water
REPORTED METRIC: solubility

Exercise: I'd like to know its solubility. The molecule in question is NCCCC[C@@H]1NC(=O)[C@H](CCC(=O)O)NC(=O)c2cc([N+](=O)[O-])ccc2OCCC(C(=O)NCC(=O)O)NC1=O (stereo partly shown)
Key: ≥ 5000 µg/mL

* * *

biological target: NIH3T3 fibroblasts expressing TrkA (Homo sapiens, UniProt P04629); construct: expressed in transfected cells; host or cells: NIH3T3 fibroblasts; test: Cell survival (MTT), NIH-TrkA; assay type: cell-based; settings: agent 10 μM alone; 72 hours;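 also: 100% equals survival with optimal NGF at 1 nM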
Sequence (P04629 33-796): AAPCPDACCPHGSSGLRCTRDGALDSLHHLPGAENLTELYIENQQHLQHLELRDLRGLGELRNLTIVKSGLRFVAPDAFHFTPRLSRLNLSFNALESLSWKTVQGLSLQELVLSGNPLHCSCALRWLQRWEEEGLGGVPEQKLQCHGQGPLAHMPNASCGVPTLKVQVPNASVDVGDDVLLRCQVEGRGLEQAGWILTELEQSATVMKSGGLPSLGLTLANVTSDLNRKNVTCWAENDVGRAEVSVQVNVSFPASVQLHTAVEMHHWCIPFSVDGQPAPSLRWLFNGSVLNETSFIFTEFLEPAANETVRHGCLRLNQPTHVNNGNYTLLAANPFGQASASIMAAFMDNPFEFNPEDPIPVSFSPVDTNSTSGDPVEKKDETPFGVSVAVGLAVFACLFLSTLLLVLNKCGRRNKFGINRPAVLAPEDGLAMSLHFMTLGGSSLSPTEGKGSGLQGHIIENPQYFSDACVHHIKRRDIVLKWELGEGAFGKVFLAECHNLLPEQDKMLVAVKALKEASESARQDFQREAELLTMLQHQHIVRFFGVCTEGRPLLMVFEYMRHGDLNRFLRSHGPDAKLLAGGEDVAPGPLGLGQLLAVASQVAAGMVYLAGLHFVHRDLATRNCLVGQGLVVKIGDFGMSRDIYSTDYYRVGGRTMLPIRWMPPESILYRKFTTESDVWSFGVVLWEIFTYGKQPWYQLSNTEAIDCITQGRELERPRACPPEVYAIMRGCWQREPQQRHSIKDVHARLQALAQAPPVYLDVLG
Please respond with reported NIH-TrkA % Protection for every item in the list.
Answers are plain numbers, in %.

Please review the entries below; each comes with its answer.
NC(=O)C[C@@H]1NC(=O)[C@H](CCC(=O)O)NC(=O)c2cc([N+](=O)[O-])cc(I)c2NCCC(C(N)=O)NC1=O (some centres unmarked)
4
NCCCC[C@@H]1NC(=O)[C@H](CCC(=O)O)NC(=O)c2cc([N+](=O)[O-])ccc2OCCC(C(=O)NCC(=O)O)NC1=O (some centres unmarked)
8
CCC(C)[C@@H]1NC(=O)C(CC(=O)O)NC(=O)c2cc([N+](=O)[O-])cc(I)c2OCCC(C(N)=O)NC1=O (some centres unmarked)
15

List the reported NIH-TrkA % Protection of each molecule below.
1. CC(O)[C@@H]1NC(=O)c2cc([N+](=O)[O-])cc(I)c2NCCC(C(N)=O)NC(=O)CNC1=O (some centres unmarked)
2. CC(O)[C@@H]1NC(=O)[C@H](CCCCN)NC(=O)c2cc([N+](=O)[O-])cc(I)c2OCCC(C(N)=O)NC1=O (some centres unmarked)

Key:
[5, 5]

* * *

target: NIH3T3 fibroblasts expressing TrkA (Homo sapiens, UniProt P04629); construct: expressed in transfected cells; host or cells: NIH3T3 fibroblasts; experiment: Cell survival (MTT), NIH-TrkA; type: cell-based; conditions: agent 10 μM + 10 pM NGF; 72 hours;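 also: 100% equals survival with optimal NGF at 1 nM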
Field: NIH-TrkA % Protection. Provide a value for each of the molecules that follow.
Answers are plain numbers, in %.

CC(O)[C@@H]1NC(=O)c2cc([N+](=O)[O-])cc(I)c2NCCC(C(N)=O)NC(=O)CNC1=O (stereo partly shown)
9
NC(=O)C[C@@H]1NC(=O)[C@H](CCC(=O)O)NC(=O)c2cc([N+](=O)[O-])cc(I)c2NCCC(C(N)=O)NC1=O (stereo partly shown)
12
NCCCC[C@@H]1NC(=O)[C@H](CCC(=O)O)NC(=O)c2cc([N+](=O)[O-])ccc2OCCC(C(=O)NCC(=O)O)NC1=O (stereo partly shown)
51

// switching to the query molecule
Exercise: Give NIH-TrkA % Protection (NIH3T3 fibroblasts expressing TrkA (Homo sapiens, UniProt P04629)) of the following molecule: CCC(C)[C@@H]1NC(=O)C(CC(=O)O)NC(=O)c2cc([N+](=O)[O-])cc(I)c2OCCC(C(N)=O)NC1=O (stereo partly shown)
Key: 52
